experimental target: acyl-CoA:cholesterol acyltransferase (ACAT) (Oryctolagus cuniculus, UniProt G1SFD9)
Sequence (G1SFD9 1-524): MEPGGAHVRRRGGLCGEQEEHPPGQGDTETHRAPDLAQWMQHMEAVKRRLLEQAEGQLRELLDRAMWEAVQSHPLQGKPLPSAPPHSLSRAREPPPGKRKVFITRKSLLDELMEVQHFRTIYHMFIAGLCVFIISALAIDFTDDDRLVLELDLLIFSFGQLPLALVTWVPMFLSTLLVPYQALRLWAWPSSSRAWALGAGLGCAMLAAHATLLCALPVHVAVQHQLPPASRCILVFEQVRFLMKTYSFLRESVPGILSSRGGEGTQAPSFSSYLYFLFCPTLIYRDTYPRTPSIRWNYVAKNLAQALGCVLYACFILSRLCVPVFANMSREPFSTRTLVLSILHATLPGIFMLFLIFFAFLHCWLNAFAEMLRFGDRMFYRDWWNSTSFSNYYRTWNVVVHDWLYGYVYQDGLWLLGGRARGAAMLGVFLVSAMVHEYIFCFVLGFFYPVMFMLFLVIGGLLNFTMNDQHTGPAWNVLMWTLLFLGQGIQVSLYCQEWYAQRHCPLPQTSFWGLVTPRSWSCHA
pIC50: −log10 of the molar value.
measurement name: pIC50

I = O=C(Nc1ccc(F)cc1F)N(Cc1ccccc1)CC(c1ccccc1)c1ccccc1
II = CCCCCCCN(CC(c1ccccc1)c1ccccc1)C(=O)Nc1c(C)cccc1C
III = O=C(Nc1c(Cl)cccc1Cl)N(Cc1ccccc1)CC1(c2ccccc2)CCCC1
stdin: List the 3 compounds shown above, ordered by increasing pIC50. In your reply, arrange the labels in the requested order.
stdout: II, I, III
